Ref: ChEMBL document CHEMBL1124451

Biological target: UniProtKB P24557
Sequence (whole entry): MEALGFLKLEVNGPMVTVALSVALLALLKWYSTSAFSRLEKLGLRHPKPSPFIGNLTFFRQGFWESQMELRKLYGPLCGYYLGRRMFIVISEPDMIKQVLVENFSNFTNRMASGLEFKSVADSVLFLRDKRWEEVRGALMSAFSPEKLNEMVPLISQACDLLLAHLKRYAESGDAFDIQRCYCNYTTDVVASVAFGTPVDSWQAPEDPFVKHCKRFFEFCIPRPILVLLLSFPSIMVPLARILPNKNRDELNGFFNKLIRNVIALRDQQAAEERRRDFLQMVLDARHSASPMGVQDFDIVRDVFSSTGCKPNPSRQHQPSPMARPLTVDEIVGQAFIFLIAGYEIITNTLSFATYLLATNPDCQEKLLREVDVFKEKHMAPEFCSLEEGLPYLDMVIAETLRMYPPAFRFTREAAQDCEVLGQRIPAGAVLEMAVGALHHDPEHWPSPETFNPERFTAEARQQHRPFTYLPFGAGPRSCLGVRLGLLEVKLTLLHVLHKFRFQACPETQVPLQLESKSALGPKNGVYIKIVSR
Assay: Relative potency of thromboxane A2 synthetase as reduced ADP-induced aggregation of human platelet rich plasma compared to dazoxiben
Format: functional, cell-free
Assignment: determine reported Relative potency for the given molecules.
Answers are plain numbers.

Consider the following illustrative entries.
C/C(=C/c1ccc(Cc2cccnc2)n1-c1ccccc1)C(=O)O: 0.08
C/C(=C\c1ccc(Cn2ccnc2)[nH]1)C(=O)O: 0.24
C/C(=C\c1cc(Cn2ccnc2)n(C)c1)C(=O)O: 1.3
CCn1c(/C=C(/C)C(=O)O)ccc1Cc1cccnc1: 45

Go through the list and state Relative potency for each entry.
1. C/C(=C/c1ccc(Cn2ccnc2)n1C)C(=O)O
2. Cn1cc(/C=C/C(=O)O)cc1Cn1ccnc1

Out:
1. 2.2
2. 0.62
